Settings: 313.15 K; 101 kPa; Liquid
Numbers after ± are expanded uncertainties.
MEASURED ENDPOINT: mass density
Quick note: number first, unit second.

Example cases with answers are listed next.
Returns the measured mass density for the input molecule. Input: c1ccccc1
857.46 ± 0.73 kg/m3

What value of mass density has been reported for the following molecule? C1CCCCC1
759.6 ± 1 kg/m3

Could you share which mass density value was measured for Cc1ccccc1 ?
848.92 ± 0.79 kg/m3

Turning to the following molecule.
Query (molecule): CN1CCCC1=O ; field requested: mass density
1014.55 ± 0.5 kg/m3

---

molecules and their reported viscosity
Settings: 323.15 K; 101 kPa; Liquid
Please reply with the bare figure in mPa·s and do not write the unit itself.

Example entries and their recorded answers appear below.
Which value of viscosity has been reported for c1ccccc1 in the records?
0.436

Which value of viscosity has been reported for CN1CCCC1=O in the records?
1.16

Can you share its viscosity? I mean this molecule: C1CCCCC1
0.598

More entries:
Dear colleague, I am looking for the recorded viscosity of the following molecule: Cc1ccccc1
0.423
